# measured-on: MycN (Homo sapiens, UniProt P04198)
# Construct: endogenous in cells; host or cells: SK-N-BE(2)
# Sequence (P04198 whole entry): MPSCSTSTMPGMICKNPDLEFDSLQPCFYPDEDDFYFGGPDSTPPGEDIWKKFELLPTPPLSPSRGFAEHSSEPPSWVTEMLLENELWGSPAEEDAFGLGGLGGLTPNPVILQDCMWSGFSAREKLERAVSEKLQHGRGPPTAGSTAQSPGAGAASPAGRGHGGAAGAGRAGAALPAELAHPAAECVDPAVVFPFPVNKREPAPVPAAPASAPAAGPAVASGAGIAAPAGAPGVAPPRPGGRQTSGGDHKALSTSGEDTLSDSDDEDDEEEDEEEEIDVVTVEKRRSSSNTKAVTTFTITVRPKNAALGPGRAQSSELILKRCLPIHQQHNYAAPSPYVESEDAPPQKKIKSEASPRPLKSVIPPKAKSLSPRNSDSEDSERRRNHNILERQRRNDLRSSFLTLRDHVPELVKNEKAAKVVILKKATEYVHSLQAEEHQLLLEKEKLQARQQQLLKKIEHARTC
# test: Degradation of MycN protein in SK-N-BE(2) cells (JESS/Western blot)
# Type: cell-based
# condition-summary: SKNBE2 cells, 24 h, 1 μM; read-out: % Degradation of MycN (SKNBE2) 24 h, 1 μM
property-name: Dmax at 1 µM

[[record]]
compound = "Cn1cc(C(=O)N2CC3(CC(Nc4nccc(Nc5cc(C6CCCC6)[nH]n5)n4)C3)C2)nn1 [Compound 39]"
value_observed = "< 20%"

[[record]]
compound = "CN1CCC(CNc2nccc(Nc3cc(C4CCCC4)[nH]n3)n2)CC1 [Compound 1]"
value_observed = "< 20%"

[[record]]
compound = "CN1CC2(CCC(Nc3nccc(Nc4cc(C5CCCC5)[nH]n4)n3)CC2)C1 [Compound 20]"
value_observed = "80 to 100%"

[[record]]
compound = "c1cc(Nc2cc(C3CCCC3)[nH]n2)nc(NC2CCNCC2)n1 [Compound 32]"
value_observed = "50 to 79%"

[[record]]
compound = "c1cc(Nc2cc(C3CC3)[nH]n2)nc(NC2CCNCC2)n1 [Compound 29]"
value_observed = "< 20%"

